ASSAY PROCEDURE: Waters ACQUITY UPLC HSS T3, 0.4 mL/min; A: water + 0.1% formic acid; B: acetonitrile + 0.1% formic acid; gradient (min/%B) 0/5 1.5/5 12/95 14/95 14.01/100 17/100
EXPERIMENTAL PARAMETERS: stereoisomer not certain
MEASUREMENT LABEL: LC retention time (min)

Look over these answered cases.
{"COMPOUND": "CCC=CCC=CCC=CCC=CCC=CCC=CCCC(=O)OCC(O)COP(=O)(O)OCCN (stereo unspecified)", "SCALE UNIT": "min", "LC retention time": 4.65}
{"COMPOUND": "CN1C2CCC1(O)C(O)C(O)C2O (stereo unspecified)", "SCALE UNIT": "min", "LC retention time": 1.05}
{"COMPOUND": "CN(C)C", "SCALE UNIT": "min", "LC retention time": 0.706}
{"COMPOUND": "CC(=O)OCC(N)C(=O)O (stereo unspecified)", "SCALE UNIT": "min", "LC retention time": 0.786}
{"COMPOUND": "O=S(=O)([O-])CCCCCCCP(CCCCCCCS(=O)(=O)[O-])CN(CP(CCCCCCCS(=O)(=O)[O-])CCCCCCCS(=O)(=O)[O-])c1ccccc1", "SCALE UNIT": "min", "LC retention time": 1.3}
{"COMPOUND": "CCCCCC=CCC=CCCCCCCCC(=O)OC(COC(=O)CCCCCCCC=CCCCCCC)COP(=O)(O)OCC(O)CO (stereo unspecified)", "SCALE UNIT": "min", "LC retention time": 13.9}
{"COMPOUND": "CCCCCCCCCCCCCCCC(=O)OC1C(C)OC(OC2C(OCCCC)OC(CO)C(O)C2O)C(O)C1O (stereo unspecified)", "SCALE UNIT": "min", "LC retention time": 10.4}
{"COMPOUND": "CC(C)CC(N)C(=O)NC(CCC(=O)O)C(=O)O (stereo unspecified)", "SCALE UNIT": "min", "LC retention time": 1.05}
{"COMPOUND": "CC1=CC(=O)C2(C(C)C)C(=O)C3=C(C(O)C4OC(=O)C35CCCC(C)(C)C45)C12 (stereo unspecified)", "SCALE UNIT": "min", "LC retention time": 10.6}
{"COMPOUND": "OCCOCCOCCOCCOCCOCCOCCO", "SCALE UNIT": "min", "LC retention time": 3.99}

1 = Nc1cncn1C1OC(COP(=O)(O)O)C(O)C1O (stereo unspecified)
2 = CC(CCC(=O)NCCS(=O)(=O)O)C1CCC2C3C(O)C(O)C4CC(O)CCC4(C)C3CCC12C (stereo unspecified)
Parameter check: reported LC retention time is higher for which label, 1 or 2 ? Selection: enter the item's label.
2

a = CCCCCCC=CC=CCCCCCCCC(=O)OC(COC(=O)CCCCCCCCC(C)C)COP(=O)(O)OCC(O)CO (stereo unspecified)
b = CCC(=O)C1CC(C)C2(CC(=O)C3(C)C4=C(CCC32C)C2(C)C=CC(=O)C(C)(CO)C2CC4)O1 (stereo unspecified)
Pick one, a or b : lowest reported LC retention time. Selection: enter the item's label.
b

I = C[N+](C)(C)CC(O)CC(=O)[O-] (stereo unspecified)
II = CC(C)CC(NC(=O)OC(C)(C)C)C(=O)O (stereo unspecified)
Parameter check: reported LC retention time is higher for which label, I or II ? Selection: enter the item's label.
II

P = CC(=O)c1cnccn1
Q = COC1(CCC(C)COC2OC(CO)C(O)C(O)C2O)OC2CC3C4CCC5CC(=O)CCC5(C)C4CCC3(C)C2C1C (stereo unspecified)
R = CC1(O)CCC(C(C)(C)OC2OC(CO)C(O)C(O)C2O)CC1O (stereo unspecified)
Rank the 3 compounds: largest LC retention time first, smallest last. Returns: the labels listed in the requested order.
Q, R, P
